target: Cytochrome P450 2C9 (Homo sapiens) (UniProt P11712); assay: qHTS Assay for Inhibitors and Substrates of Cytochrome P450 2C9 (AID 883); settings: recombinant CYP2C9, luciferin-H luminescence, 60 min; series mostly up to 57.1 µM; also: % is scaled to controls: 0 for no effect and ±100 for the full control effect; nearly all actives have a fitted effect of over 60% in size
Sequence (P11712 whole entry, looked up): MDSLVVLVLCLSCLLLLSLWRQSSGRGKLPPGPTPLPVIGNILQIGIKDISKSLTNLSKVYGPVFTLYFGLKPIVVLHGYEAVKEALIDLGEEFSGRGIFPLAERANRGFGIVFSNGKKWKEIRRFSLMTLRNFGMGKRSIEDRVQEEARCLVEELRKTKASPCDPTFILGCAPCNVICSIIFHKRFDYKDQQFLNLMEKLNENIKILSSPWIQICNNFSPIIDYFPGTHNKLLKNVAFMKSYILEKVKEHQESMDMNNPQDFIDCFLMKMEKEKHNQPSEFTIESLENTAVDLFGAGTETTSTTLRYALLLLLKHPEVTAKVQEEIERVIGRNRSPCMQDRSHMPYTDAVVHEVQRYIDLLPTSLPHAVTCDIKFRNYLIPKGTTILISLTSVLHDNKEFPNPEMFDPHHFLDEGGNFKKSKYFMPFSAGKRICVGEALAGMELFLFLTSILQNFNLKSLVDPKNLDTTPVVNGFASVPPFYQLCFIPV
Records with an inconclusive call do not appear. Active and inactive are the calls of the source. Calls follow the shape of the dose curve; as a rule, active = well fitted inhibition curve with a large enough effect; inconclusive = small, poorly fitted or top-dose-only effect; inactive = no such curve, though single readings can be large or run the other way.
Measurement label: activity change, negative = inhibition

c1ccc(-c2cc3c(nc2-c2ccccc2)CCNC3)cc1; -10% [at 11.4 µM] (inactive)
C[C@H](Br)C(=O)c1ccc2cc(Br)c3ccccc3c2c1; 58.8% [at 11.4 µM] (inactive)
COC(=O)C1C(c2ccccc2)C2C(=O)c3c(OC)cc(OC)cc3O[C@@]12c1ccc(OC)cc1 (some centres undefined); -4.65% [at 11.4 µM] (inactive)

// next item, activity change, negative = inhibition requested
Respond only with activity change, negative = inhibition recorded for CN1CCc2nc(CO)c(CO)cc2C1 21.8% [at 11.4 µM] (inactive)

###

molecular target: Cytochrome P450 3A4 (Homo sapiens) (UniProt P08684); experiment: qHTS Assay for Inhibitors and Substrates of Cytochrome P450 3A4 (AID 884); details: recombinant CYP3A4, Luciferin-PPXE luminescence; series mostly up to 57.1 µM; also: nearly all actives have a fitted effect of over 50% in size
Sequence (P08684 whole entry, looked up): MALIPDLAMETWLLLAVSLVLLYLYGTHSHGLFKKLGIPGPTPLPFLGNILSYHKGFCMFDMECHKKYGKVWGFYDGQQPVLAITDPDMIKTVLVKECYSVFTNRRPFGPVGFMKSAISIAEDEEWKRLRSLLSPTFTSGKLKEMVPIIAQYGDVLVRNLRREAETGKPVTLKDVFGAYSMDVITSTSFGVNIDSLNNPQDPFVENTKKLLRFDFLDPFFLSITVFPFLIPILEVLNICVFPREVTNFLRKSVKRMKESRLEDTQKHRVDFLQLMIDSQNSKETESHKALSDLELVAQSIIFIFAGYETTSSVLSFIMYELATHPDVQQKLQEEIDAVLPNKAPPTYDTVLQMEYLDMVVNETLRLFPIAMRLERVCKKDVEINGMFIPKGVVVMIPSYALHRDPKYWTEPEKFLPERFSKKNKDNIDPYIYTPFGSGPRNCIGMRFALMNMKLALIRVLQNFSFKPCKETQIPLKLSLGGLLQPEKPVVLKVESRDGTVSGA
Inconclusive results are not listed. Active and inactive are the calls of the source. Calls come from the whole dose curve; as a rule, active = well fitted inhibition curve with a large enough effect; inconclusive = small, poorly fitted or top-dose-only effect; inactive = no such curve, though single readings can be large or run the other way.
Hello, when you answer, please use one of the following outcomes: active, inactive

Reference set, count: 6
O=C1c2c(O)ccc([N+](=O)[O-])c2C(=O)c2c([N+](=O)[O-])ccc(O)c21; active
CC[C@]1(O)CC(O[C@@H]2CC(N(C)C)C(O)C(C)O2)c2c(cc3c(c2O)C(=O)c2c(O)ccc(O)c2C3=O)C1C(=O)OC (stereo not given in full); inactive
COc1cc2c(cc1OC)C1C(=O)c3c(cc4c(c3O)C=CC(C)(C)O4)OC1CO2 (stereo not given); active
O=c1cccc2n1CC1CC2CN2CCCC[C@H]12 (stereo not given in full); inactive
O=[N+]([O-])c1cc(C(F)(F)F)cc([N+](=O)[O-])c1Cl; inactive
CC(=O)Oc1ccc(/C=C/c2cc(OC(C)=O)cc(OC(C)=O)c2)cc1; active

Just curious, what result did CN(C)C1C(=O)C(C(N)=O)=C(O)[C@@]2(O)C(=O)C3=C(O)c4c(O)cccc4[C@](C)(O)C3C(O)C12 (stereo not given in full) get here? inactive

Just curious, what result did OCC1OC(n2cnc3cc(Cl)c(Cl)cc32)C(O)C1O (stereo not given) get here? inactive

Just curious, what result did O=C(CCl)c1ccccc1 get here? inactive

Just curious, what result did COc1cc2c(cc1OC)-c1c(OC)c(OC)c(CO)c3c1C(C2)N(C)CC3 (stereo not given) get here? active

###

Consider the following molecules and their measured Potency readings.
molecular target: Retinoic acid receptor RXR-alpha (Homo sapiens); test: qHTS assay for small molecule antagonists of retinoid X receptor alpha signaling (AID 588546); details: HEK293T RXRa-UAS-bla, beta-lactamase ratio, antagonist mode; also: potency is read from the fitted curve at half-maximal effect
Results filed as inconclusive are left out. Active and inactive are the calls of the source. The call rests on the fitted dose curve; in most records, active means well fitted inhibition curve with a large enough effect in the signal ratio, with a control signal flat (not every such curve was filed as active); inconclusive means small, poorly fitted or top-dose-only effect, or effect the other way, or a change in a side signal; inactive means no such curve, though single readings can be large or run the other way; the % refers to the signal ratio.

C=CC(=O)OCC(CO)(COC(=O)C=C)COC(=O)C=C; 5.62 µM (active)
CCOP(=S)(OCC)SCn1nnc2ccccc2c1=O; 39.8 µM (active)
CN(c1c(Br)cc(Br)cc1Br)c1c([N+](=O)[O-])cc([N+](=O)[O-])cc1C(F)(F)F; 8.91 µM (active)
CC1COC(Cn2cncn2)(c2ccc(Oc3ccc(Cl)cc3)cc2Cl)O1 (stereo unspecified); 39.8 µM (active)

# return Potency of CC(C)(C)[C@@H](O)/C(=C\c1ccc(Cl)cc1Cl)n1cncn1 (system: Retinoic acid receptor RXR-alpha (Homo sapiens)) 44.7 µM (active)

# return Potency of CC1(c2ccc(Oc3ccccc3)cc2)OC(=O)N(Nc2ccccc2)C1=O (stereo unspecified) (system: Retinoic acid receptor RXR-alpha (Homo sapiens)) 31.6 µM (active)

###

Consider the following compounds and their measured max response readings.
experiment: qHTS assay for small molecule agonists of retinoid X receptor alpha signaling (AID 588544); conditions: HEK293T RXRa-UAS-bla, beta-lactamase reporter, 18 h; 530 nm emission
Inconclusive results are not listed.
Report the figure in % without appending any unit label.

Consider the following illustrative entries.
Cc1nc(N(C)C)nc(OC(=O)N(C)C)c1C; 0.351
CC(C)NC(=O)N1CC(=O)N(c2cc(Cl)cc(Cl)c2)C1=O; 21.2
COC(=O)c1sccc1S(=O)(=O)NC(=O)Nc1nc(C)nc(OC)n1; -0.622
CCNc1nc(NC(C)(C)C)nc(SC)n1; -0.223
O=c1[nH]c2ccccc2c(=O)o1; -6.9
Cc1ccccc1CO[C@@H]1C[C@@]2(C(C)C)CC[C@]1(C)O2; 4.66
C=C(C)C(=O)OCC(CC)CCCC (stereo unspecified); -20.3
CCCCCCCCCCCCN(C)C; -10.4
S=C(S)NCCNC(=S)S; 9.28
O=[As](O)(O)O; -18.2

Respond only with max response recorded for CNC(=O)N(C)c1nc2ccccc2s1 -6.4

Respond only with max response recorded for CNC(=O)Oc1cccc2c1OC(C)(C)C2O (stereo unspecified) -10.1

Respond only with max response recorded for CCCSC(=O)N(CCC)CCC -0.108

###

target: Androgen receptor (Homo sapiens) (UniProt P10275); assay: qHTS assay for small molecule antagonists of androgen receptor signaling (AID 588516); conditions: AR-UAS-bla HEK293, beta-lactamase ratio, antagonist mode, 16 h; series mostly up to 76.8 µM; also: % is scaled to controls: 0 for no effect and ±100 for the full control effect
Sequence (P10275 whole entry, looked up): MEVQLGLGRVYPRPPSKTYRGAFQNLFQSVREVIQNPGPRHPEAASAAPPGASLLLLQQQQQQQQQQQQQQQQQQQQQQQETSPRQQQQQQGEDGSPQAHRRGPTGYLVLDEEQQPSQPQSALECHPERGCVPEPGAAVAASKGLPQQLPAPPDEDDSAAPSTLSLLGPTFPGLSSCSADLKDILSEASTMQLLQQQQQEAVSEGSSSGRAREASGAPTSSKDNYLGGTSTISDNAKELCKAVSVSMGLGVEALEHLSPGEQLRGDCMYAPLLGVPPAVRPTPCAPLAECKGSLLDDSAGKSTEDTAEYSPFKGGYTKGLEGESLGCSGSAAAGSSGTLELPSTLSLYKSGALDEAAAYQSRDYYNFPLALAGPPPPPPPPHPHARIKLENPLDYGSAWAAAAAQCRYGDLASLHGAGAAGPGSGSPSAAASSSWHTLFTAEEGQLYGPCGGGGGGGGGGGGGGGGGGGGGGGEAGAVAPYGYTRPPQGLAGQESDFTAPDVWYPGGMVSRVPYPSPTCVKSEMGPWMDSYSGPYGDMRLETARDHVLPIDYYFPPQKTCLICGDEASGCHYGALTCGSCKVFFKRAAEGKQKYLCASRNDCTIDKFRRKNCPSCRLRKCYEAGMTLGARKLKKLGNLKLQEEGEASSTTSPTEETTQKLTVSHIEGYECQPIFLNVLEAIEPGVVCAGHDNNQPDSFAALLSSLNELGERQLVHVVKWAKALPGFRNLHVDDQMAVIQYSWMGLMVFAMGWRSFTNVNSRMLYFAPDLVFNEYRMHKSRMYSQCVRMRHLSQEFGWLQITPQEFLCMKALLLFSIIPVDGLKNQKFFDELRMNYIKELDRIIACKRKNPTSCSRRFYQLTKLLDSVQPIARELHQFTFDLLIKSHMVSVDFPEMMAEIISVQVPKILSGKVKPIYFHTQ
Inconclusive results are not listed. The source made the active and inactive calls. Calls follow the shape of the dose curve; as a rule, active = well fitted curve in the direction sought with a large enough effect in the signal ratio, with a control signal flat (not every such curve was filed as active); inconclusive = small, poorly fitted or top-dose-only effect, or effect the other way, or a change in a side signal; inactive = no such curve, though single readings can be large or run the other way; the % refers to the signal ratio.
Hello, when you answer, please use one of the following outcomes: active, inactive

Reference set, count: 2
CCOP(=S)(OCC)SCCl; inactive
CCOC(=O)COc1cc(-c2nn(C)c(OC(F)F)c2Cl)c(F)cc1Cl; inactive

Just curious, what result did N#CCNC(=O)c1cnccc1C(F)(F)F get here? inactive

Just curious, what result did Cc1[nH]c(=O)n(C(C)(C)C)c(=O)c1Cl get here? inactive

Just curious, what result did Nc1c(Cl)c(F)nc(OCC(=O)O)c1Cl get here? inactive

###

biological target: Estrogen receptor (Homo sapiens); assay: qHTS assay for small molecule antagonists of estrogen receptor alpha signaling (AID 588513); settings: ER-alpha-UAS-bla HEK293, beta-lactamase ratio, antagonist mode; series mostly up to 76.9 µM; also: % is scaled to controls: 0 for no effect and ±100 for the full control effect
Records with an inconclusive call do not appear. The source made the active and inactive calls. The call rests on the fitted dose curve; in most records, active means well fitted curve in the direction sought with a large enough effect in the signal ratio, with a control signal flat (not every such curve was filed as active); inconclusive means small, poorly fitted or top-dose-only effect, or effect the other way, or a change in a side signal; inactive means no such curve, though single readings can be large or run the other way; the % refers to the signal ratio.
Hello, when you answer, please use one of the following outcomes: active, inactive

Reference set, count: 3
FC(F)(F)c1ccc(Cl)cc1; inactive
Clc1ccc([C@]2(Cn3cncn3)C[C@@H](Br)CO2)c(Cl)c1; inactive
COP(=O)(OC)O/C(C)=C/C(=O)N(C)C; inactive

Just curious, what result did CCOP(=S)(OCC)Oc1ncn(-c2ccccc2)n1 get here? inactive

Just curious, what result did O=C(O)C(F)(F)C(F)(F)C(F)(F)C(F)(F)C(F)(F)F get here? inactive

Just curious, what result did Brc1c(Br)c(Br)c(Br)c(Br)c1Br get here? inactive

###

molecular target: Mitogen-activated protein kinase 10 (Mus musculus); assay: JNK3 AlphaScreen Assay (AID 530); settings: JNK3 lysate, c-Jun phosphorylation; series mostly up to 57.1 µM;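 also: kinase came from lysate of stimulated human HepG2 cells; signal reports phosphorylation of biotinylated GST-cJun 1-79 at Ser73 with 10 µM ATP; % is scaled to controls: 0 for no effect and ±100 for the full control effect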
Inconclusive results are not listed. Active and inactive are the calls of the source. The call rests on the fitted dose curve; in most records, active means well fitted curve in either direction with a large enough effect (not every such curve was filed as active); inconclusive means small, poorly fitted or top-dose-only effect, or another doubt; inactive means flat fitted curve, though single readings scatter.
Measurement label: activity change, negative = inhibition

CC(C)[C@@]1(NC(=O)[C@@H]2C[C@H]3c4cccc5[nH]cc(c45)C[C@@H]3N(C)C2)O[C@@]2(O)[C@H]3CCCN3C(=O)[C@@H](Cc3ccccc3)N2C1=O; inactive
C[C@H]1C(=O)O[C@H]2CCN3CC=C(COC(=O)[C@](C)(O)[C@@]1(C)O)[C@H]23; inactive
O=CN1C[C@H]2C[C@@H](C1)c1cccc(=O)n1C2; inactive

###

experiment: Cell Viability - LYMP2-025 (AID 976); conditions: LYMP2-025 lymphoblastoid cell viability; series mostly up to 92.2 µM;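 also: cells exposed to compound for 24 h at 37 °C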; also: potency is read from the fitted curve at half-maximal effect
Results filed as inconclusive are left out. Active and inactive are the calls of the source. The call rests on the fitted dose curve; in most records, active means well fitted cell-killing curve with a large enough effect; inconclusive means small, poorly fitted or top-dose-only effect; inactive means flat fitted curve, though single readings scatter.
Measurement label: Potency

Consider the following illustrative entries.
OC(c1ccc(Cl)cc1)(c1ccc(Cl)cc1)C(Cl)(Cl)Cl; inactive
c1cc(OCC2CO2)cc(OCC2CO2)c1 (configuration not stated); 50.1 µM (active)
CCCCCCCCn1sccc1=O; 6.31 µM (active)
Oc1c(Br)c(Br)c(Br)c(Br)c1Br; inactive
Nc1ccccc1C(=O)OCCc1ccccc1; inactive
Cc1ccccc1; inactive

// next item, Potency requested
Respond only with Potency recorded for CC(=O)[O-].CC(=O)[O-].O.O.[Cd+2] inactive

###

molecular target: Peroxisome proliferator-activated receptor delta (Homo sapiens); assay: qHTS assay for small molecule antagonists of peroxisome proliferator-activated receptor delta signaling (AID 588535); conditions: HEK293T PPARd-UAS-bla, beta-lactamase FRET ratio, 18 h; series mostly up to 76.7 µM
Inconclusive results are not listed. The source made the active and inactive calls. Calls follow the shape of the dose curve; as a rule, active = well fitted inhibition curve with a large enough effect in the signal ratio, with a control signal flat (not every such curve was filed as active); inconclusive = small, poorly fitted or top-dose-only effect, or effect the other way, or a change in a side signal; inactive = no such curve, though single readings can be large or run the other way; the % refers to the signal ratio.
Hello, when you answer, please use one of the following outcomes: True = active, False = inactive

Reference set, count: 5
CC(C)(C)C(O)C(Oc1ccc(-c2ccccc2)cc1)n1cncn1 (stereo not given); False
O=C(NC(=O)c1c(F)cccc1F)Nc1ccc(Cl)cc1; False
CCNc1nc(Cl)nc(NC(C)(C)C#N)n1; False
Oc1ccc(C(c2ccc(O)cc2)(C(F)(F)F)C(F)(F)F)cc1; False
N#CN=C1SCCN1Cc1ccc(Cl)nc1; False

Just curious, what result did COc1cc(OC)nc(NC(=O)NS(=O)(=O)c2ncccc2C(F)(F)F)n1 get here? False

Just curious, what result did CC(C)CCCCCCOC(=O)c1ccccc1C(=O)OCCCCCCC(C)C get here? False

Just curious, what result did O=[N+]([O-])c1cc(C(F)(F)F)cc([N+](=O)[O-])c1Cl get here? False

Just curious, what result did CCOc1nc(NC)nc(NC(=O)NS(=O)(=O)c2ccccc2C(=O)OC)n1 get here? False
